- measuredOn: hmGluR1 receptor (Homo sapiens, UniProt Q13255)
- Construct: expressed in transfected cells
- Sequence (Q13255 19-1194): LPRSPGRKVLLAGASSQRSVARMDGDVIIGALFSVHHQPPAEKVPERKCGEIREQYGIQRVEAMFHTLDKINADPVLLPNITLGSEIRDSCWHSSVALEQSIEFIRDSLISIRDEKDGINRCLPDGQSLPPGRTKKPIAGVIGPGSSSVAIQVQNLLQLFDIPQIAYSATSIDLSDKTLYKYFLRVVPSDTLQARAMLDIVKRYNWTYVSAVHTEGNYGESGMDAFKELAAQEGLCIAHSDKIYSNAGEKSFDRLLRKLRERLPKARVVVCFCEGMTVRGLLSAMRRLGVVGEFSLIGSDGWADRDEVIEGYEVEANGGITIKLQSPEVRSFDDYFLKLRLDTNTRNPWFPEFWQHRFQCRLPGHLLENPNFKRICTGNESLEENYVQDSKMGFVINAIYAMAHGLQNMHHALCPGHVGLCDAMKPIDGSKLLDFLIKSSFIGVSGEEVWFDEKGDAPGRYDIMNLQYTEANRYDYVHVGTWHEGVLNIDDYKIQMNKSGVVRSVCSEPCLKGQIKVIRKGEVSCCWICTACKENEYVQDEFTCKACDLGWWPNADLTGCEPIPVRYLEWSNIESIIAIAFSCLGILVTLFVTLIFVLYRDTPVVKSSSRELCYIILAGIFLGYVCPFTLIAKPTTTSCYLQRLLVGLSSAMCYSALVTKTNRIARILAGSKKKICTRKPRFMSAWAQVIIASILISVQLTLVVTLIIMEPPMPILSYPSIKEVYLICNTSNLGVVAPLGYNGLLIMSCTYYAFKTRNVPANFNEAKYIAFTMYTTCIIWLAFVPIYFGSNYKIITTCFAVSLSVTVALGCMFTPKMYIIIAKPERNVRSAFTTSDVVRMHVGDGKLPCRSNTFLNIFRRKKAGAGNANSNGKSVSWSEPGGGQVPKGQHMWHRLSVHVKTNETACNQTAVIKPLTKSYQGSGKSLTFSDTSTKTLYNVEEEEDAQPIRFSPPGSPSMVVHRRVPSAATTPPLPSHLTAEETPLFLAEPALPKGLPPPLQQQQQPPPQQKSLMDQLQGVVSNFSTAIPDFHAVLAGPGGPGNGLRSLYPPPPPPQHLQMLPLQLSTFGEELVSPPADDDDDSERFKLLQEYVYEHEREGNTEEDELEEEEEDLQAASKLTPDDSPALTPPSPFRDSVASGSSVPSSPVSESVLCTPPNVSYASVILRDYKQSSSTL
- assaySummary: IC50 determination: intracellular calcium mobilization (FLIPR) upon Quisqualate stimulation in CHO cells stably expressing hmGluR1
- Format: cell-based
- conditionSet: against Quisqualate 1 μM (EC80), FLIPR calcium mobilization, read-out: mGluR1 IC50
This listing pairs compounds with measured IC50.
reportedProperty: IC50 (nM)

> print(dat)
                                    compound  resultunit  numericreadout
 1  CN(C)c1ccnc2sc3c(=O)n(-c4ccc5c(c4)OCCO5)cnc3c12 [7AC]          nM            1.84
 2  CN(C)c1ncnc2sc3c(=O)n(-c4ccc5occc5c4)cnc3c12 [95AP]          nM             1.6
 3  C#CCNc1ccnc2sc3c(=O)n(-c4ccc(Cl)cc4)cnc3c12 [28DL]          nM            0.91
 4  CN(C)c1ccnc2sc3c(=O)n(C4CCCCCC4)cnc3c12 [7X]          nM            0.68
 5  Cc1ccc(-n2cnc3c(sc4nccc(N(C)C)c43)c2=O)cc1F [7DH]          nM            2.02
 6  C=CCN(C)c1ccnc2sc3c(=O)n(-c4ccc(Cl)cc4)cnc3c12 [28DZ]          nM            1.08
 7  O=c1c2sc3ncnc(NC4CC4)c3c2ncn1-c1ccc(Br)cc1 [95AU]          nM            1.37
 8  Cc1ccc(-n2cnc3c(sc4nccc(NCC#N)c43)c2=O)cc1 [28AA]          nM            1.81
 9  CNc1ccnc2sc3c(=O)n(-c4ccc(C)cc4)cnc3c12 [28AI]          nM            1.27
10  O=c1c2sc3nccc(NCCCCO)c3c2ncn1-c1ccc(Cl)cc1 [28GE]          nM            0.28
